# measured-on: P-glycoprotein (Pgp; Abcb1a, MDR3) (Mus musculus)
# Sequence (P21447 whole entry): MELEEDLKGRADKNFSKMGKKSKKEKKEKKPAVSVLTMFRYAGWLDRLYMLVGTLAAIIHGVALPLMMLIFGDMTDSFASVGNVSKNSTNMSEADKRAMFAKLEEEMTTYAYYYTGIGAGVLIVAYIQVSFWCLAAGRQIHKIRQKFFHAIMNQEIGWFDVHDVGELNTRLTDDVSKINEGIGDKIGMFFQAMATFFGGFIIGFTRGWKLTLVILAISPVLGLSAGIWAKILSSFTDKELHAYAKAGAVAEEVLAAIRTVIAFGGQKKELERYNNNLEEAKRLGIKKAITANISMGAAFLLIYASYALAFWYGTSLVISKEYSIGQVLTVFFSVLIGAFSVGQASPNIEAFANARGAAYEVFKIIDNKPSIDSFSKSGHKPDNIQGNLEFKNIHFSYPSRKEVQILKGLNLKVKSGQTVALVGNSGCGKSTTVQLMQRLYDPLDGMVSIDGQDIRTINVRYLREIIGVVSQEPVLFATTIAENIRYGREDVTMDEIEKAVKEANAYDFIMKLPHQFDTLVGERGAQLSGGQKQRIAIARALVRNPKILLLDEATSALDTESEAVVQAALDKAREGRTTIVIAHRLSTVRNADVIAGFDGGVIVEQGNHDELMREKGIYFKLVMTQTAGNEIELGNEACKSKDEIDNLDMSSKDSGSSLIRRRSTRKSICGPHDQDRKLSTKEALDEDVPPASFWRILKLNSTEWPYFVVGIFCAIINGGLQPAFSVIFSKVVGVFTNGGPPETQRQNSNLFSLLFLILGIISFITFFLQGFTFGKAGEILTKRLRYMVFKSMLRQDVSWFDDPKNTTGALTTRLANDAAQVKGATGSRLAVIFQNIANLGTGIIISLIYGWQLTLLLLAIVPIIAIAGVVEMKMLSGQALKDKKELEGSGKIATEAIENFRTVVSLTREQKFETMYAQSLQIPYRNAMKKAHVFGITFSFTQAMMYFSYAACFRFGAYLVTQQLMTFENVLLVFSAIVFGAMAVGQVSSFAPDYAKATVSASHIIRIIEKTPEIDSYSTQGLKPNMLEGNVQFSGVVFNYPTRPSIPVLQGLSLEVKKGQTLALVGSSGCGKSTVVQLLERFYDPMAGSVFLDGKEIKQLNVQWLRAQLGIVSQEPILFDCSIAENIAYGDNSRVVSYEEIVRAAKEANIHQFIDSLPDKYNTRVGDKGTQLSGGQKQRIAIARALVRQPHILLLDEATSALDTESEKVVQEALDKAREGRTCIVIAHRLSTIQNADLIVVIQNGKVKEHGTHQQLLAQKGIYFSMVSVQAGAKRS
# method-description: intrinsic protein
# Assay type: binding
measured-metric: pKd
The read-out pKd is expressed as -log10 of concentration in moles per litre.

## Task I have this molecule here, CN1CCC[C@@H]1Cc1c[nH]c2ccc(CCS(=O)(=O)c3ccccc3)cc12 , and I need its recorded pKd.
## Result 3.94
